assay endpoint: melting point

| compound | test value |
| --- | --- |
| Cc1cc(C)n2nc(C)c(C(=O)O)c2n1 | 226 to 228 °C |
| O=C(CCl)NC(Cc1ccccc1)c1ccccc1 (centres undefined) | 219 to 221 °C |
| O=C(O)CCCNC(=O)c1ccc(F)cc1 | 93 to 95 °C |
| NCC(O)COCc1ccccc1 (centres undefined) | 74 to 76 °C |

###

Below, each entry is listed alongside its reported melting point.
assay endpoint: melting point

| compound | test value |
| --- | --- |
| O=C(O)C1CC1c1ccc(Cl)c(Cl)c1 (stereo unspecified) | 141 to 143 °C |
| O=C(O)CC=Cc1ccccc1F | 54 to 56 °C |
| CN(C)S(=O)(=O)c1ccc(N2CCOCC2)c(C(=O)O)c1 | 218 to 220 °C |
| Nc1nnc(Cc2ccccc2)s1 | 170 to 179 °C |
| Sc1nnnn1C1CCCC1 | 123 to 125 °C |
| COCCN1C(=O)CC(=O)NC1=S | 148 to 150 °C |

###

| molecule | melting point |
| --- | --- |
| N#Cc1ccsc1C(=O)O | 191 to 193 °C |
| NC(=O)c1cc(-c2ccccc2)sc1NC(=O)CCl | 208 to 210 °C |
| Cc1cc(=O)c(C(=O)O)nn1-c1ccccc1C(F)(F)F | 145 to 147 °C |
| O=C(Nc1ccccc1C(=O)O)c1ccccc1I | 204 to 206 °C |
| CCN(CC)S(=O)(=O)c1ccc2nc(O)cc(C(=O)O)c2c1 | 310 to 312 °C |
| Cc1sc2nc(CN3CCCCC3)nc(Cl)c2c1C | 61 to 63 °C |
| CC(C)(C)CCS(N)(=O)=O | 91 to 93 °C |
| O=[N+]([O-])c1cnccc1NC1CC1 | 105 to 107 °C |
| Oc1ccc2[nH]ncc2c1 | 184 to 186 °C |
| O=C(O)CCNC(=O)Cc1ccccc1 | 109 to 111 °C |
| CC(=O)N1CCN(CC(N)=S)CC1 | 199 to 201 °C |
| Nc1cccc(C(=O)Nc2cnccn2)c1 | 135 to 137 °C |
| NS(=O)(=O)c1ccc(OCc2ccccc2Cl)cc1 | 179 to 181 °C |
| Nc1cccc(C(=O)CCC(=O)O)c1 | 126 to 128 °C |
| O=C(O)CNc1nc2ccccc2s1 | 174 to 176 °C |
| O=S(=O)(c1ccccc1)N1C2Cc3ccccc3C21 (stereo not given) | 120 to 122 °C |
| CCN(CC)c1ccc(S(=O)(=O)N2CCOCC2)cc1N | 99 to 101 °C |
| O=C(O)c1cccc(S(=O)(=O)NC2CCOC2=O)c1 (stereo not given) | 220 to 222 °C |
| Cc1nc2sc(C(=O)O)c(C)c2c(=O)[nH]1 | 388 to 390 °C |
| Cc1ccc(NC2=NC(C)(C)CS2)cc1 | 164 to 166 °C |
| Nc1cc(C(=O)O)cc(Cl)n1 | 289 to 291 °C |
| O=C(CCCl)Nc1ccc([N+](=O)[O-])cc1 | 171 to 173 °C |
| CC(=O)CC(=O)Nc1ccc(C)cc1Cl | 89 to 91 °C |
| O=C(O)c1nn(-c2ccc(Cl)cc2)c2c1CCCCC2 | 212 to 214 °C |
| COc1ccc(Cc2nnc(S)n2N)cc1OC | 177 to 179 °C |
| CCCOc1ccc(C(=O)NN)cc1OC | 146 to 148 °C |
| COc1ccc(S(=O)(=O)N2CCC(=O)CC2)cc1 | 126 to 128 °C |
| Cc1ccnc(Br)c1N | 76 to 78 °C |
| COC(=O)C1C2CCC(N2)C1C(=O)OC (stereo not given) | 77 to 79 °C |
| N#Cc1cc(Br)cc(S(N)(=O)=O)c1 | 199 to 201 °C |
| NC(=NO)c1cccnc1N1CCCCC1 | 149 to 151 °C |
| NC(=O)N1CCCC(C(=O)O)C1 (stereo not given) | 181 to 185 °C |
| Cc1ccc(CN)c(S(C)(=O)=O)c1 | 32 to 34 °C |
| O=C(NC=C(Cl)Cl)c1cccc(Br)c1 | 91 to 93 °C |
| CS(=O)(=O)Cc1cccc(S(=O)(=O)Cl)c1 | 142 to 144 °C |
| O=C(c1cc2ccccc2o1)C1CC1 | 63 to 65 °C |
| OCc1cc(I)c(CO)cc1I | 218 to 220 °C |
| O=C(O)CN1CCCC1=O | 125 to 135 °C |
| CCOC(=O)N1CCC(NC(N)=S)CC1 | 160 to 162 °C |
| CC(=O)CC(=O)c1ccc(F)cc1 | 48 to 52 °C |
